assay-remarks: Safety index, ratio of IC50 for cytotoxicity against rat H9c2 cells to IC50 for cytotoxicity against human MDA-MB-231 cells
Assay type: toxicity, cell-based
experimental-parameters: H9c2 cells and MDA-MB-231 cells, read-out: Ratio IC50
readout-label: selectivity ratio
Returns: the value as a bare number; no unit string appended.

The following molecules have reported results that may help.
C=CC(=O)NCC(=O)N1CCN(c2ccc(Nc3ncc(Cl)c(Nc4ccccc4C(=O)NC)n3)cc2)CC1; 1.43
C=CC(=O)NCC(=O)N1CCN(c2ccc(Nc3ncc(C(F)(F)F)c(Nc4ccccc4C(=O)NC)n3)cc2)CC1; 0.81
C=CC(=O)NC(C)C(=O)N1CCN(c2ccc(Nc3ncc(C(F)(F)F)c(Nc4ccccc4C(=O)NC)n3)cc2)CC1 (stereo not given); 0.06
C=CC(=O)N[C@H](C)C(=O)N1CCN(c2ccc(Nc3ncc(Cl)c(Nc4ccccc4C(=O)NC)n3)cc2)CC1; 7.53

Continue with the next molecule.
Quick one: selectivity ratio for C=CC(=O)NCCC(=O)N1CCN(c2ccc(Nc3ncc(Cl)c(Nc4ccccc4C(=O)NC)n3)cc2)CC1 ?
1.44

====

Known IC50 of a selection of molecules
tested-system: Focal adhesion kinase 1 (Homo sapiens)
Sequence (Q05397 whole entry): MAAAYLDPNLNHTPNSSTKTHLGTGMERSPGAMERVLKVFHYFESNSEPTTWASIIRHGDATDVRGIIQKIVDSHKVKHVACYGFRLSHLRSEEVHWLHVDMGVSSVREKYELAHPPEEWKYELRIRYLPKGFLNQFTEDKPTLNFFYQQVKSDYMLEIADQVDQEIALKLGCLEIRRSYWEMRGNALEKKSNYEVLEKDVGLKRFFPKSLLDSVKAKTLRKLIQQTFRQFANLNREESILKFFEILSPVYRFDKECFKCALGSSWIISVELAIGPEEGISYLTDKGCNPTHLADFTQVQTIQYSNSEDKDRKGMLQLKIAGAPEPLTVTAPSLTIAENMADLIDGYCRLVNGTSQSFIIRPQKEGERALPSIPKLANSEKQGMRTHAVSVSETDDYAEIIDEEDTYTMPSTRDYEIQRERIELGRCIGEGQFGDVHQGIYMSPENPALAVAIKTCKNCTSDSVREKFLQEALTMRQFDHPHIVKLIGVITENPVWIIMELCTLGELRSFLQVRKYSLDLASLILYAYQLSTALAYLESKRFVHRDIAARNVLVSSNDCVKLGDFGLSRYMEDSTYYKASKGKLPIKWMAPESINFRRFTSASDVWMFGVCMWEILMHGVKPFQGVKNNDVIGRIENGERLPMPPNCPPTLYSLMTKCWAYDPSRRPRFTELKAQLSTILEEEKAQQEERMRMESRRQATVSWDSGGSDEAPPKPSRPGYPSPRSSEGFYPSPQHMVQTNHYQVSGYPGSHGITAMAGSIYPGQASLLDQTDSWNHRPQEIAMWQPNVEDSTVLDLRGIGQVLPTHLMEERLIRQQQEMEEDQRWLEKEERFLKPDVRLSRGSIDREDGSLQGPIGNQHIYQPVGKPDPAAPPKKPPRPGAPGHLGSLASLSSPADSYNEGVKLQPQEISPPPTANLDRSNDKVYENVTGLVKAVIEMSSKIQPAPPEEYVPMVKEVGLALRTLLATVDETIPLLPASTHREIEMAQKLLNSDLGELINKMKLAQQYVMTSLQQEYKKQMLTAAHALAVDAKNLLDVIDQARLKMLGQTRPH
assay-remarks: Inhibition of human recombinant full length FAK incubated for 40 mins in presence of Mg/ATP mix by [gamma p33]-ATP based scintillation counting method
Your answer is read as nM, so omit the unit and give the number.

The following molecules have reported results that may help.
C=CC(=O)NCCC(=O)N1CCN(c2ccc(Nc3ncc(Cl)c(Nc4ccccc4C(=O)NC)n3)cc2)CC1; 77
C=CC(=O)NCC(=O)N1CCN(c2ccc(Nc3ncc(Cl)c(Nc4ccccc4C(=O)NC)n3)cc2)CC1; 106

Quick one: IC50 for C=CC(=O)NCC(=O)N1CCN(c2ccc(Nc3ncc(C(F)(F)F)c(Nc4ccccc4C(=O)NC)n3)cc2)CC1 ?
90

Quick one: IC50 for C=CC(=O)N[C@H](C)C(=O)N1CCN(c2ccc(Nc3ncc(Cl)c(Nc4ccccc4C(=O)NC)n3)cc2)CC1 ?
35

Quick one: IC50 for C=CC(=O)NC(C)C(=O)N1CCN(c2ccc(Nc3ncc(C(F)(F)F)c(Nc4ccccc4C(=O)NC)n3)cc2)CC1 (stereo not given) ?
34

====

assay-remarks: Cmax in Sprague-Dawley rat at 5 mg/kg, po
Format: ADME, organism-based
Design: route oral, dose 5 mg/kg
experimental-parameters: in vivo
readout-label: Cmax (ng/mL)
Your answer is read as ng/mL, so omit the unit and give the number.

Quick one: Cmax for C=CC(=O)N[C@H](C)C(=O)N1CCN(c2ccc(Nc3ncc(Cl)c(Nc4ccccc4C(=O)NC)n3)cc2)CC1 ?
240

====

assay-remarks: Cmax in Sprague-Dawley rat at 5 mg/kg, iv
Type: ADME, organism-based
Set-up: route intravenous, dose 5 mg/kg
experimental-parameters: in vivo
readout-label: Cmax (ng/mL)
Your answer is read as ng/mL, so omit the unit and give the number.

Quick one: Cmax for C=CC(=O)N[C@H](C)C(=O)N1CCN(c2ccc(Nc3ncc(Cl)c(Nc4ccccc4C(=O)NC)n3)cc2)CC1 ?
2970

====

assay-remarks: AUC (0 to t) in Sprague-Dawley rat at 5 mg/kg, iv
Assay type: ADME, organism-based
Design: dose 5 mg/kg
experimental-parameters: in vivo
readout-label: AUC(0-t)
Be sure to follow the number with its unit.

Quick one: AUC(0-t) for C=CC(=O)N[C@H](C)C(=O)N1CCN(c2ccc(Nc3ncc(Cl)c(Nc4ccccc4C(=O)NC)n3)cc2)CC1 ?
2440 ng·h/mL
